Test system: adenosine-sensitive receptors of thrombocytes
assay: ADP-induced aggregation of thrombocytes in vitro (Born method)
Type: cell-based, rabbit
measurement.conditions: 10^−4 M; 3 min incubation; ADP 10^−5 M
experimental.endpoint: MA - fall of optical density of plasma, % to the standard (%)
Field: numeric (%). Do not append units.

# annotated cases, reported MA - fall of optical density of plasma, % to the standard shown
Request: # input molecule: O=c1[nH]n([C@@H]2O[C@H](CO)[C@@H](O)[C@H]2O)c(=O)c2ccccc12.[Na] [Compound 9] ; wanted: its MA - fall of optical density of plasma, % to the standard
Result: 53.1

Request: Then Nc1ncc2c(=O)[nH][nH]c(=O)c2n1 [Compound 36] ?
Result: 46.9

More entries:
Request: # input molecule: Nc1cccc2c(=O)[nH][nH]c(=O)c12.[Na] [Compound 15] ; wanted: its MA - fall of optical density of plasma, % to the standard
Result: 46.3

###

assay: Polarographic study of electrochemical reduction (electrochemical activity)
Format: physicochemical
measurement.conditions: pH 7.6; 37° C.; 9·10^−4 M; forward trace; average for the group
The reader will find reported i, mkA (polarographic wave current) values listed item by item below.
Param answer (str): number followed by unit.

Request: May I ask what i, mkA (polarographic wave current) has been recorded for O=C([O-])c1ccc2c(=O)[nH][nH]c(=O)c2c1.O=C([O-])c1ccc2c(=O)[nH][nH]c(=O)c2c1.[Na+].[Na+] ?
Result: 0.31 ± 0.02 mkA

Request: Would you kindly repeat that for Nc1cccc2c(=O)[nH][nH]c(=O)c12.[Na] ?
Result: 0.31 ± 0.02 mkA

Request: Please answer likewise for COP(=O)(OC)C(C)(C)CC(C)=O [dimephosphon, reference compound]
Result: 0.11 ± 0.02 mkA

Request: Another compound to check: O=c1[nH]n([C@@H]2O[C@H](CO)[C@@H](O)[C@H]2O)c(=O)c2nc(O)cnc12.[Na].[Na]
Result: 0.34 ± 0.02 mkA

Request: Consider next the compound Nc1ncc2c(=O)[nH][nH]c(=O)c2n1 in the same way.
Result: 0.30 ± 0.02 mkA

Request: O=c1[nH]n([C@@H]2O[C@H](CO)[C@@H](O)[C@H]2O)c(=O)c2ncnc(O)c12.[Na]
Result: 0.30 ± 0.02 mkA

More entries:
Request: Tell me the measured i, mkA (polarographic wave current) of O=c1[nH][nH]c(=O)c2ncccc12.[Na] , please.
Result: 0.30 ± 0.01 mkA

Request: What do you have for O=c1[nH][nH]c(=O)c2ncncc12.[Li] ?
Result: 0.30 ± 0.02 mkA

Request: And for O=c1[nH][nH]c(=O)c2nccnc12.[Li] ?
Result: 0.34 ± 0.02 mkA

###

Each item that follows carries a reported −E1/2, V (half-wave potential vs SCE).
assay: Polarographic study of electrochemical reduction (electrochemical activity)
Format: physicochemical
measurement.conditions: pH 7.6; 37° C.; forward trace; average for the group
Quick note: give the figure in V, leave out the unit.

Below: 8 molecules and their reported −E1/2, V (half-wave potential vs SCE).
Request: Any idea what its −E1/2, V (half-wave potential vs SCE) is? The molecule is Nc1ncc2c(=O)[nH][nH]c(=O)c2n1
Result: 0.09

Request: Please answer likewise for O=c1[nH]n([C@@H]2O[C@H](CO)[C@@H](O)[C@H]2O)c(=O)c2nc(O)cnc12.[Na].[Na]
Result: 0.16

Request: Entry O=c1[nH][nH]c(=O)c2ncccc12.[Na] please
Result: 0.105

Request: Next entry: O=c1[nH][nH]c(=O)c2nccnc12.[Li]
Result: 0.16

Request: Moving on to the next molecule: COP(=O)(OC)C(C)(C)CC(C)=O [dimephosphon, reference compound]
Result: 0.18

Request: Now give it for O=c1[nH][nH]c(=O)c2ncncc12.[Li] too.
Result: 0.09

Request: Likewise for O=C([O-])c1ccc2c(=O)[nH][nH]c(=O)c2c1.O=C([O-])c1ccc2c(=O)[nH][nH]c(=O)c2c1.[Na+].[Na+] ?
Result: 0.09

Request: Queued: Nc1cccc2c(=O)[nH][nH]c(=O)c12.[Na]
Result: 0.09

Field: next molecule
Request: Which −E1/2, V (half-wave potential vs SCE) is reported for this molecule? O=c1[nH]n([C@@H]2O[C@H](CO)[C@@H](O)[C@H]2O)c(=O)c2ncnc(O)c12.[Na]
Result: 0.09

###

Each record here notes measured MA - drop of optical density, % compared to control.
Test system: adenosine-sensitive receptors of thrombocytes
assay: ADP-induced aggregation of thrombocytes in vitro (Born method)
Assay type: cell-based, rabbit
measurement.conditions: 10^−7 M; 3 min incubation; ADP 10^−5 M
Lab book: enter the figure in %, no units written.

Request: Quick one: MA - drop of optical density, % compared to control for O=c1[nH]n([C@@H]2O[C@H](CO)[C@@H](O)[C@H]2O)c(=O)c2nccc(O)c12.[Na].[Na] [Compound 4] ?
Result: 49.9

Request: Nc1cnc2c(=O)n([C@@H]3O[C@H](CO)[C@@H](O)[C@H]3O)[nH]c(=O)c2n1.[Na] [Compound 21] ?
Result: 49.7

Request: And Nc1ncnc2c(=O)n([C@@H]3O[C@H](CO)[C@@H](O)[C@H]3O)[nH]c(=O)c12.[Na] [Compound 31] ?
Result: 49.5

Request: Field entry: Nc1ncc2c(=O)[nH][nH]c(=O)c2n1 [Compound 36]
Result: 49.7

Request: Another compound to look at: Nc1ccnc2c(=O)n([C@@H]3O[C@H](CO)[C@@H](O)[C@H]3O)[nH]c(=O)c12 [Compound 2]
Result: 50.8

---
Request: Which MA - drop of optical density, % compared to control is reported for this compound? O=c1[nH]n([C@@H]2O[C@H](CO)[C@@H](O)[C@H]2O)c(=O)c2ccccc12.[Na] [Compound 9]
Result: 51.2

Request: Queued: Nc1cnc2c(=O)[nH][nH]c(=O)c2n1.[Na] [Compound 28]
Result: 50.4

Request: Would you mind doing O=c1[nH][nH]c(=O)c2ncccc12.[Li] [Compound 6] as well?
Result: 50.7

###

assay: Polarographic study of electrochemical reduction (electrochemical activity)
Format: physicochemical
measurement.conditions: calculated with the Geirovsky-Ilkovich equation
experimental.endpoint: number of electrons participating in the reduction
# print the numeric value only

Request: Fill in: number of electrons participating in the reduction of O=c1[nH][nH]c(=O)c2ncncc12.[Li] [Compound 35] is ___
Result: 3.5

###

Tested on: metabolism of nitrogen oxide
assay: Morphine abstinence model: nitrites and nitrates NOX− in blood plasma, liver and brain
Format: in vivo, rats Wistar
measurement.conditions: morphinized rats then compound 20.0 mg/kg intramuscularly
Below: a set of entries, each annotated with reported Nitrites in brain, Mesencephalon, Control + Morphine + compound.

Request: Using the record for O=c1[nH][nH]c(=O)c2ncccc12.[Li] [Compound 6] , report its Nitrites in brain, Mesencephalon, Control + Morphine + compound.
Result: 5.76 ± 0.94 nmol/mg of protein

Request: Repeat for the following molecule: O=c1[nH][nH]c(=O)c2nccnc12.[Li] [Compound 25]
Result: 5.91 ± 0.74 nmol/mg of protein

Request: Entry O=c1[nH][nH]c(=O)c2c(Br)ncnc12.[K] [Compound 37] please
Result: 5.63 ± 0.37 nmol/mg of protein

Request: Query Nc1cccc2c(=O)[nH][nH]c(=O)c12.[Na] [Compound 15] next
Result: 5.50 ± 0.43 nmol/mg of protein

###

Test system: metabolism of nitrogen oxide
assay: Morphine abstinence model: nitrites and nitrates NOX− in blood plasma, liver and brain
Type: in vivo, rats Wistar
measurement.conditions: compound alone 20.0 mg/kg intramuscularly
// Nitrites in brain, Cortex of cerebrum, Control + Compound lookup, one value per entry

Examples with answers:
Request: What does the data say about its Nitrites in brain, Cortex of cerebrum, Control + Compound? Entry: O=c1[nH][nH]c(=O)c2ncccc12.[Li]
Result: 4.59 ± 0.44 nmol/mg of protein

Request: Same lookup for O=c1[nH][nH]c(=O)c2nccnc12.[Li] , please.
Result: 4.47 ± 0.43 nmol/mg of protein

Request: For O=c1[nH][nH]c(=O)c2c(Br)ncnc12.[K] then?
Result: 4.36 ± 0.24 nmol/mg of protein

We now examine a further compound.
Request: If you can, please state the reported Nitrites in brain, Cortex of cerebrum, Control + Compound value of Nc1cccc2c(=O)[nH][nH]c(=O)c12.[Na] .
Result: 4.31 ± 0.37 nmol/mg of protein

###

# Lookup of reported MA - fall of optical density of plasma, % to the standard keyed by entry
System: adenosine-sensitive receptors of thrombocytes
assay: ADP-induced aggregation of thrombocytes in vitro (Born method)
Type: cell-based, rabbit
measurement.conditions: 10^−3 M; 3 min incubation; ADP 10^−5 M
// note: answer is a bare numeric in %

// worked examples, MA - fall of optical density of plasma, % to the standard included
Request: Name the recorded MA - fall of optical density of plasma, % to the standard for Nc1cccc2c(=O)[nH][nH]c(=O)c12.[Na] .
Result: 44.8

Request: Would you kindly repeat that for Nc1cnc2c(=O)n([C@@H]3O[C@H](CO)[C@@H](O)[C@H]3O)[nH]c(=O)c2n1.[Na] ?
Result: 47.1

Request: Another: Nc1ncnc2c(=O)n([C@@H]3O[C@H](CO)[C@@H](O)[C@H]3O)[nH]c(=O)c12.[Na]
Result: 44.9

Request: What about Nc1cnc2c(=O)[nH][nH]c(=O)c2n1.[Na] ?
Result: 49.7

Request: Check O=c1[nH][nH]c(=O)c2c(Br)ncnc12.[K] too.
Result: 46.9

Request: Same again, this time with Nc1ccnc2c(=O)n([C@@H]3O[C@H](CO)[C@@H](O)[C@H]3O)[nH]c(=O)c12
Result: 51.4

Request: Next up: O=c1[nH][nH]c(=O)c2ncccc12.[Li]
Result: 50.0

Request: And for Nc1ncc2c(=O)[nH][nH]c(=O)c2n1 ?
Result: 45.8

Request: How about this molecule: O=c1[nH]n([C@@H]2O[C@H](CO)[C@@H](O)[C@H]2O)c(=O)c2ccccc12.[Na]
Result: 47.3

Request: Please give the result for O=c1[nH]n([C@@H]2O[C@H](CO)[C@@H](O)[C@H]2O)c(=O)c2nccc(O)c12.[Na].[Na] too.
Result: 49.2

Lab note: next molecule to report on.
Request: Bench note: what MA - fall of optical density of plasma, % to the standard did O=c1[nH][nH]c(=O)c2nccnc12.[Li] show?
Result: 48.2
